target-desc: T1, PSMA Fab (biotinylated (site not stated))
T1 construct: also called Anti-PSMA Fab; 006 PSMA Fab
experimental-details: clonal phage ELISA; biotinylated PSMA Fab on neutravidin plate; bound phage detected with anti-M13-HRP
Where no end group is shown, it is not given here.
reported-property: Phage binding ELISA signal, Anti-PSMA Fab
API doc: respond with a numeric literal and nothing else, no unit.

query: Form field: reported Phage binding ELISA signal, Anti-PSMA Fab of VMSWCVPAWMCETP [Phage-2631]
result: 0.973

query: Given the entry VEMLCKPAWMCANQ (cysteine pairing not given here; also: displayed on phage as pIII fusion) [Phage-2626] , report its measured Phage binding ELISA signal, Anti-PSMA Fab.
result: 0.986

query: Reported Phage binding ELISA signal, Anti-PSMA Fab for AEKWCIPEWMCEQL [Phage-2632] : what is it?
result: 0.972

query: # input binder: LNNWCTPLWMCQMF [Phage-2628] ; wanted: its Phage binding ELISA signal, Anti-PSMA Fab
result: 0.979

query: Any idea what its Phage binding ELISA signal, Anti-PSMA Fab is? The binder is IANWCTPQWMCDGF [Phage-2620]
result: 0.997

query: Entry under review: THHWCIPAWMCEQD [Phage-2633] . Reported Phage binding ELISA signal, Anti-PSMA Fab?
result: 0.967

query: # get_value(readout='Phage binding ELISA signal, Anti-PSMA Fab', item= MTQWCIPEWMCSEE [Phage-2624] )
result: 0.99

Hello, the source for this data is patent US20260242478A1, in case you need it.
